The values you see were collected from patent US20150094294A1.

Test system: 3T3 cells
ASSAY_PROCEDURE: Cytotoxicity against 3T3 cells
Type: cell-based
pEC50: −log10 of the molar value.
Criterion: pEC50 meeting or surpassing 4. Met: condition met. Not met: condition not met.

Here's what some known entries look like.
COMPOUND: CCN(CC)CCN(CCN)c1c(NC(=O)Nc2cc(C(F)(F)F)cc([N+](=O)[O-])c2N(CCN)CCN(CC)CC)cc(C(F)(F)F)cc1[N+](=O)[O-] [Compound 123]
CLASS_ASSIGNMENT: condition not met
//
COMPOUND: Cn1c(-c2cccc(CCNC(=N)N)c2)cnc1-c1cccc(CCNC(=N)N)c1 [Compound 246]
CLASS_ASSIGNMENT: condition not met
//
COMPOUND: CCn1c2ccc(C3=CCNCC3)cc2c2cc(C3=CCNCC3)ccc21 [Compound 282]
CLASS_ASSIGNMENT: condition met
//
COMPOUND: N=C(N)NCCSc1ccc(NC(=O)Nc2ccc(OC3CCN(C(=N)N)C3)c(C(F)(F)F)c2)cc1C(F)(F)F (centres unmarked) [Compound 272]
CLASS_ASSIGNMENT: condition met
//
COMPOUND: N=C(N)N1CCC(Oc2ccc(NC(=O)Nc3ccc(OC4CCN(C(=N)N)C4)c(C(F)(F)F)c3)cc2C(F)(F)F)C1 (centres unmarked) [Compound 271]
CLASS_ASSIGNMENT: condition not met

Shifting focus to the compound that follows.
[Q] Does the reported pEC50 for NCCc1cccc(-c2ccc(-c3cccc(CCN)c3)o2)c1 [Compound 237] fall at or above the 4 mark?
[A] condition met
